tested on: NCI-H460 lung; assay: NCI tumour cell line growth inhibition, 48 h
Recorded TGI for the following compounds

// solved cases for TGI follow
CC(C)(C)OC(=O)C1C(=O)NC(=O)CC1CC(OCc1ccccc1)C(OCc1ccccc1)C(COCc1ccccc1)OCc1ccccc1 (stereo unspecified)    > 100 µM
S=C(NCc1ccccc1)Nc1sc(=NCc2ccccc2)nc2sc3c(c12)CCN(N1CCc2c(sc4nc(=NCc5ccccc5)sc(NC(=S)NCc5ccccc5)c24)C1)C3    > 83.9 µM
CN(C)c1ccc(/C=N/NC(N)=S)nc1    29.3 µM
Cc1cccc(-c2nnc3s/c(=C\c4ccc(N(C)C)cc4)c(=O)n23)c1    > 100 µM
CC(=O)OCc1c(O)c2c([nH]c1=O)CCc1ccccc1-2    283 µM
COC(=O)CCC(=O)Nc1ccc(Cl)cc1C    > 100 µM
COc1ccc(CC(=O)NCCc2ccc(OC)c(OC)c2OC)cc1    > 100 µM
COc1ccc(CCN2CCN(CCCc3ccccc3)CC2)cc1    > 100 µM

Inquiry: Look at this compound and give its reported TGI. O=C1c2c(c(=O)[nH]c3ccccc23)[C@H](c2ccccc2)[C@@H]2CCCN12
Reply text: 16.5 µM

Inquiry: Next up: Cc1ccc(NCC2(/N=C/c3ccccc3)OC(CO)C(O)C2O)cc1 (stereo unspecified)
Reply text: > 100 µM

Inquiry: Would you mind doing OC1NC2Nc3ccccc3NC2NC1O (stereo unspecified) as well?
Reply text: > 100 µM

Inquiry: One more compound: COc1ccc2c(c1)CCC1C2CC[C@@]2(C)C1CC[C@@H]2NC(=O)Cc1ccc(O)c(O)c1 (stereo partly specified)
Reply text: 31.9 µM
